- system-name: Human HIF-PHD2 (Homo sapiens)
- Construct: FLAG-tagged full length PHD2 expressed in and purified from baculovirus-infected Sf9 cells; FLAG; made in house; host or cells: baculovirus-infected Sf9 cells
- Sequence (Q9GZT9 whole entry): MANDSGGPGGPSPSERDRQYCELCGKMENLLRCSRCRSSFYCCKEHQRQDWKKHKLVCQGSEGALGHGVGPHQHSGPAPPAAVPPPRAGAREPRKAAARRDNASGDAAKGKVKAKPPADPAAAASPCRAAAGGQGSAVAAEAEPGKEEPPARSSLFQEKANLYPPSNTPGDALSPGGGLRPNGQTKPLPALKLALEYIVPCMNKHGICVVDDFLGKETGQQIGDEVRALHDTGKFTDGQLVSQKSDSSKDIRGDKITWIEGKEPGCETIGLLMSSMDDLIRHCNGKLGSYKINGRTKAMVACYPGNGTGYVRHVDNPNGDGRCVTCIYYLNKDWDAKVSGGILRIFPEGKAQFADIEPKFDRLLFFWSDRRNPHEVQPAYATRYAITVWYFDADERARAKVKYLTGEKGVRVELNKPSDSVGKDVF
- test-details: Inhibition of the hydroxylation of a HIF peptide by PHD2 (time resolved fluorescence, 384-well)
- Assay type: biochemical
- stated-conditions: FLAG-tagged full length PHD2; 0.2 μM 2-oxoglutarate, 0.5 μM HIF-1α peptide; 45 minutes at room temperature; read-out: MS m/z (M + 1)+ and human HIF-PHD2 IC50
IC50 vs 8 nM: less than gives T; not less than gives F.

>>> df
                                   molecule  cat
0  Cc1noc(C)c1-c1ccc2c(O)c(C(=O)NCC(=O)O)c(=O)n3c2c1OCC3    T
1  O=C(O)CNC(=O)c1c(O)c2cccc3c2n(c1=O)C(c1nccs1)CO3 (stereo not shown)    F
2  O=C(O)CNC(=O)c1c(O)c2cc(Cl)cc3c2n(c1=O)C(c1ccc(C(F)(F)F)cc1)CO3 (stereo not shown)    F
3  O=C(O)CNC(=O)c1c(O)c2ccc(Cl)c3c2n(c1=O)CC(c1ccc(C(F)(F)F)cc1)O3 (single isomer, unassigned)    T
4  O=C(O)CNC(=O)c1c(O)c2ccc(Cl)c3c2n(c1=O)C(c1ccc(C(F)(F)F)cc1)CO3 (stereo not shown)    F
5  O=C(O)CNC(=O)c1c(O)c2cccc3c2n(c1=O)C(c1ccc(-c2ccc(C(F)(F)F)nc2)cc1)CO3 (stereo not shown)    T
